Numbers sourced from patent US12495798B2.

# Test system: soybean
# Protocol Description: Phytotoxicity test for upland field crops (foliar treatment test)
# Format: in vivo
# Test Context: 50 g ai/ha, Soybean (7 days after treatment)
Parameter: Foliar treatment phytotoxicity, Soybean
Numbers only.

Check out these entries, answers already filled in.
[
  {
    "Compound": "Cc1nc(COCc2nc(C(F)(F)F)ccc2C(=S)Nc2nnnn2C)nn1C",
    "Foliar treatment phytotoxicity, Soybean": 3
  },
  {
    "Compound": "CON(Cc1nnn(C)n1)c1nc(C(F)(F)F)ccc1C(=O)Nc1nnnn1C",
    "Foliar treatment phytotoxicity, Soybean": 0
  },
  {
    "Compound": "Cn1nc(COCc2nc(C(F)(F)F)ccc2C(=O)Nc2nnnn2C)nc1Cl",
    "Foliar treatment phytotoxicity, Soybean": 4
  },
  {
    "Compound": "COC(=O)OC(C)N(C(=O)c1ccc(C(F)(F)F)nc1COCc1ncn(C)n1)c1nnnn1C (centres unmarked)",
    "Foliar treatment phytotoxicity, Soybean": 4
  },
  {
    "Compound": "CCOC(=O)OC(C)N(C(=O)c1ccc(C(F)(F)F)nc1COCc1nnn(C)n1)c1nnnn1C (centres unmarked)",
    "Foliar treatment phytotoxicity, Soybean": 0
  },
  {
    "Compound": "Cn1ncnc1COCc1nc(C(F)(F)F)ccc1C(=O)Nc1nnnn1C",
    "Foliar treatment phytotoxicity, Soybean": 5
  },
  {
    "Compound": "Cn1nnc(CSCc2nc(C(F)(F)F)ccc2C(=O)Nc2nnnn2C)n1",
    "Foliar treatment phytotoxicity, Soybean": 0
  }
]

Kindly review the next compound as well.
Prompt line: GET Foliar treatment phytotoxicity, Soybean where system = soybean and item = Cn1cnc(COCc2nc(C(F)F)ccc2C(=O)Nc2nnnn2C)n1
Response line: 4

----------
# Test system: cotton
# Protocol Description: Phytotoxicity test for field crops (soil treatment test)
# Format: in vivo
# Test Context: 100 g ai/ha; Cotton (10 days after treatment)
Parameter: Soil treatment phytotoxicity, Cotton
One number for each entry.

Sample answers from the record:
[
  {
    "Molecule": "COc1nc(COCc2nc(C(F)(F)F)ccc2C(=O)Nc2nnnn2C)nn1C [Compound No. 2-129]",
    "Soil treatment phytotoxicity, Cotton": 1
  },
  {
    "Molecule": "Cn1nnnc1NC(=O)c1ccc(C(F)(F)F)nc1OCc1nnnn1C(F)F [Compound No. 1-26]",
    "Soil treatment phytotoxicity, Cotton": 1
  },
  {
    "Molecule": "CN(Cc1nnn(C)n1)c1nc(C(F)(F)F)ccc1C(=O)Nc1nnnn1C [Compound No. 2-26]",
    "Soil treatment phytotoxicity, Cotton": 1
  }
]

We next turn to a different molecule, shown below.
Prompt line: Read the entry Cn1ncnc1COc1nc(C(F)(F)F)ccc1C(=O)Nc1nnnn1C [Compound No. 1-45] and write its reported Soil treatment phytotoxicity, Cotton.
Response line: 3

----------
# System: wheat
# Protocol Description: Phytotoxicity test for field crops (soil treatment test)
# Assay type: in vivo
# Set-up: key: 0 (no harm); 9 (complete withered)
# Test Context: 100 g ai/ha; Wheat (20 days after treatment)
Parameter: Soil treatment phytotoxicity, Wheat
Numbers only.

A selection of reference data follows.
[
  {
    "Compound Structure String": "Cn1nnc(CSCc2nc(C(F)(F)F)ccc2C(=O)N(C(=O)c2ccccc2)c2nnnn2C)n1",
    "Soil treatment phytotoxicity, Wheat": 0
  },
  {
    "Compound Structure String": "Cn1nnnc1COc1nc(C(F)(F)F)ccc1C(=S)Nc1nnnn1C",
    "Soil treatment phytotoxicity, Wheat": 3
  },
  {
    "Compound Structure String": "Cn1nnc(COCc2nc(C(F)(F)Cl)ccc2C(=O)Nc2nnnn2C)n1",
    "Soil treatment phytotoxicity, Wheat": 0
  },
  {
    "Compound Structure String": "CN(Cc1nnn(C)n1)c1nc(C(F)(F)F)ccc1C(=O)Nc1nnnn1C",
    "Soil treatment phytotoxicity, Wheat": 0
  }
]

For each of the compounds below, note its Soil treatment phytotoxicity, Wheat.
1. Cn1nnc(COCc2nc(C(F)(F)F)ccc2C(=O)N(C(=O)c2ccccc2)c2nnnn2C)n1
2. Cn1nc(COCc2nc(C(F)(F)F)ccc2C(=O)Nc2nnnn2C)nc1Br
3. Cc1nc(COCc2nc(C(F)(F)F)ccc2C(=O)Nc2nnnn2C)nn1C
4. Cn1nnnc1COc1nc(C(F)(F)F)ccc1C(=O)Nc1nnnn1C

Response line:
1. 0
2. 0
3. 0
4. 1

Prompt line: Give the reported Soil treatment phytotoxicity, Wheat for this compound. Cn1ncnc1COc1nc(C(F)(F)F)ccc1C(=O)Nc1nnnn1C
Response line: 0

----------
Record form. Attribute: pest or weed control at 50 g/ha. Fill in for each entry.
# Tested on: black nightshade
# Protocol Description: Herbicidal activity test against upland field weeds (foliar treatment test)
# Assay type: in vivo
# Test Context: Solanum nigrum, 50 g ai/ha, scale 0-100
Answers are plain numbers, in %.

[
  {
    "Compound Structure String": "C=C(C)c1nc(COCc2nc(C(F)(F)F)ccc2C(=O)Nc2nnnn2C)nn1C",
    "System Under Test": "black nightshade",
    "Parameter": "pest or weed control at 50 g/ha",
    "Observed Measurement": 90
  },
  {
    "Compound Structure String": "C=CCn1nnnc1NC(=O)c1ccc(C(F)(F)F)nc1COCc1nc(C(F)F)n(C)n1",
    "System Under Test": "black nightshade",
    "Parameter": "pest or weed control at 50 g/ha",
    "Observed Measurement": 95
  },
  {
    "Compound Structure String": "C=Cc1cc(C(=O)Nc2nnnn2C)c(OCc2nnnn2C)nc1C(F)(F)F",
    "System Under Test": "black nightshade",
    "Parameter": "pest or weed control at 50 g/ha",
    "Observed Measurement": 80
  }
]

// for each compound below, give its pest or weed control at 50 g/ha
1. CCCn1nnnc1NC(=O)c1ccc(C(F)(F)F)nc1COCc1ncn(C)n1
2. Cn1nnnc1NC(=O)c1ccc(C(F)(F)F)nc1COc1nnnn1C
3. Cn1ncnc1COCc1nc(C(F)(F)F)ccc1C(=O)Nc1nnnn1C
4. Cn1nc(COCc2nc(C(F)(F)F)ccc2C(=O)Nc2nnnn2C)nc1Cl
5. C#CCN(Cc1nnn(C)n1)c1nc(C(F)(F)F)ccc1C(=O)Nc1nnnn1C

Response line:
95
95
95
98
90

----------
# Tested on: wheat
# Protocol Description: Phytotoxicity test for upland field crops (foliar treatment test)
# Format: in vivo
# Parameters: key: 0 (no harm); 9 (complete withered)
# Test Context: 50 g ai/ha, Wheat (7 days after treatment)
Parameter: Foliar treatment phytotoxicity, Wheat
One number for each entry.

Some solved entries appear below for comparison.
[
  {
    "Compound Structure String": "Cn1nnnc1NC(=O)c1ccc(C(F)(F)F)nc1Sc1nnnn1C",
    "Parameter": "Foliar treatment phytotoxicity, Wheat",
    "Observed Measurement": 0
  },
  {
    "Compound Structure String": "Cn1nnc(COCc2nc(C(F)(F)F)ccc2C(=S)Nc2nnnn2C)n1",
    "Parameter": "Foliar treatment phytotoxicity, Wheat",
    "Observed Measurement": 0
  },
  {
    "Compound Structure String": "Cn1nnnc1COc1nc(C(F)(F)F)ccc1C(=O)Nc1nnnn1C",
    "Parameter": "Foliar treatment phytotoxicity, Wheat",
    "Observed Measurement": 1
  },
  {
    "Compound Structure String": "Cn1ncnc1COCc1nc(C(F)(F)F)ccc1C(=O)Nc1nnnn1C",
    "Parameter": "Foliar treatment phytotoxicity, Wheat",
    "Observed Measurement": 2
  },
  {
    "Compound Structure String": "C=Cc1nc(COCc2nc(C(F)(F)F)ccc2C(=O)Nc2nnnn2C)nn1C",
    "Parameter": "Foliar treatment phytotoxicity, Wheat",
    "Observed Measurement": 0
  }
]

Quick request: Foliar treatment phytotoxicity, Wheat for each listed item, please.
1. Cn1nnc(COCc2nc(C(F)(F)F)ccc2C(=O)N(C(=O)c2ccccc2)c2nnnn2C)n1
2. Cc1nc(COCc2nc(C(F)(F)F)ccc2C(=S)Nc2nnnn2C)nn1C
3. Cn1cnc(COCc2nc(C(F)F)ccc2C(=O)Nc2nnnn2C)n1

Response line:
0
0
0

----------
# System: bindweed
# Protocol Description: Herbicidal activity test against upland field weeds (foliar treatment test)
# Assay type: in vivo
# Test Context: 50 g ai/ha, scale 0-100
Parameter: Foliar treatment herbicidal activity, Bindweed
One number for each entry.

Reference set, count: 5
[
  {
    "Molecule": "C#CCn1nnnc1NC(=O)c1ccc(C(F)(F)F)nc1COCc1nc(C(F)(F)F)n(C)n1 [Compound No. 2-122]",
    "Observed Measurement": 70
  },
  {
    "Molecule": "Cn1nnc(C[S+]([O-])Cc2nc(C(F)(F)F)ccc2C(=O)Nc2nnnn2C)n1 (stereo not shown) [Compound No. 2-104]",
    "Observed Measurement": 100
  },
  {
    "Molecule": "Cn1nc(COCc2nc(C(F)(F)F)ccc2C(=O)Nc2nnnn2C)nc1I [Compound No. 2-137]",
    "Observed Measurement": 70
  },
  {
    "Molecule": "Cn1nnc(CSCc2nc(C(F)(F)F)ccc2C(=O)Nc2nnnn2C)n1 [Compound No. 2-102]",
    "Observed Measurement": 100
  },
  {
    "Molecule": "CCOC(=O)OC(C)N(C(=O)c1ccc(C(F)(F)F)nc1COCc1nnn(C)n1)c1nnnn1C (stereo not shown) [Compound No. 4-8]",
    "Observed Measurement": 100
  }
]

Please give Foliar treatment herbicidal activity, Bindweed, item by item, for the list that follows.
1. Cn1nnc(C[S+]([O-])Cc2nc(C(F)F)ccc2C(=O)Nc2nnnn2C)n1 (stereo not shown) [Compound No. 2-111]
2. Cn1nnc(COCc2nc(C(F)(F)F)ccc2C(=O)N(C(=O)c2ccccc2)c2nnnn2C)n1 [Compound No. 2-68]

Response line:
1: 98; 2: 100
